Reference for the values: patent US20220023281A1

- target or test system: AM2 receptor-expressing cells (1321N1 cells transfected with CALCRL+RAMP3) (Homo sapiens, UniProt O60896+Q16602)
- Construct: host or cells: 1321N1 cells
- Sequence (Q16602 23-461): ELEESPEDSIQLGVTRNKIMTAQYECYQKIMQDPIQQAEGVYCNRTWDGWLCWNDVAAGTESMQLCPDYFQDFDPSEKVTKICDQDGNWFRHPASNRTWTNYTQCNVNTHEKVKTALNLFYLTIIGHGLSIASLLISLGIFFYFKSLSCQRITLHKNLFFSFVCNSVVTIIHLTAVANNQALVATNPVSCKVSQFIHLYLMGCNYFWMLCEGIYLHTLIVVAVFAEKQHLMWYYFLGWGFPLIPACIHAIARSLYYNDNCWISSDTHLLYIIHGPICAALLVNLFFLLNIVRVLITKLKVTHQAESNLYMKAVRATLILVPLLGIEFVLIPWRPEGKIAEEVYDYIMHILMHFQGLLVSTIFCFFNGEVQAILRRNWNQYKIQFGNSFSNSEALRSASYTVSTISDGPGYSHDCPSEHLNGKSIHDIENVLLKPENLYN
- Sequence (O60896 24-148): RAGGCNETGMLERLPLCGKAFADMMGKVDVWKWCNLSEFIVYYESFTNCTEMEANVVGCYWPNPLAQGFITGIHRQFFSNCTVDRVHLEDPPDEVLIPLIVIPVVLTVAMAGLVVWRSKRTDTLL
- assay remarks: AM2 receptor inhibition, LANCE cAMP agonist-antagonist competition assay (AM2 D2 protocol)
- Assay type: cell-based
- measurement parameters: inhibition of AM induced cAMP in 1321N1 cells expressing CALCRL+RAMP3; read-out: AM2 D2 protocol: pIC50 (converted)
measured property: IC50 (µM)

Example results:
compound: O=C(CN(C(=O)C1(C(F)(F)F)CC1)[C@H]1CCCNC1)Nc1ccc2c(c1)C[C@@]1(C2)C(=O)Nc2ncccc21
IC50 [µM]: 0.955

compound: C[C@@H]1CC[C@H](N(CC(=O)Nc2ccc3c(c2)C[C@@]2(C3)C(=O)Nc3ncccc32)C(=O)C(C)(C)C)CN1 (relative stereo)
IC50 [µM]: 0.178

compound: CC(C)(CC(F)(F)F)C(=O)N(CC(=O)Nc1ccc2c(c1)C[C@@]1(C2)C(=O)Nc2ncccc21)[C@H]1CCCNC1
IC50 [µM]: 0.0631

compound: CCC1(C(=O)N(CC(=O)Nc2ccc3c(c2)C[C@@]2(C3)C(=O)Nc3ncccc32)[C@H]2CCCNC2)CCOCC1
IC50 [µM]: 0.288

1 = CC(C)(C(=O)N(CC(=O)Nc1ccc2c(c1)C[C@@]1(C2)C(=O)Nc2ncccc21)[C@H]1CCCNC1)C(F)(F)F
2 = CC(=O)N1CCC(C)(C(=O)N(CC(=O)Nc2ccc3c(c2)C[C@@]2(C3)C(=O)Nc3ncccc32)[C@H]2CCCNC2)CC1
Task item: // max by IC50 over [ 1 , 2 ] Answer by quoting the chosen item's label.
Reply: 2
(2: 0.112 µM, 1: 0.0437 µM)
